- TEST_NAME: Phase I plasma pharmacokinetics
- Assay type: in vivo, human
- CONDITION_INFO: human, plasma, iv, 2.75 mg/kg, Cohort 4: 2.75 mg/kg; N = 6; 90-min IV infusion; Cycle 1 Day 10; plasma LC-MS; read-out: Peak plasma concentration, Mean (SD)
Ends that are not written are not given here.
MEASURE: Cmax (ng/mL)
Dear colleague, please return just the value in ng/mL, with no unit written.

Output Cmax of KEFLHPSKVDLPR [SOR-C13] 290

###

- TEST_NAME: Phase I plasma pharmacokinetics
- Format: in vivo, human
- CONDITION_INFO: human, plasma, iv, 4.13 mg/kg, Cohort 5: 4.13 mg/kg; N = 3; 90-min IV infusion; Cycle 1 Day 1; plasma LC-MS; read-out: Time to peak plasma concentration, Median
Ends that are not written are not given here.
MEASURE: Tmax (min)
Dear colleague, please return just the value in min, with no unit written.

Output Tmax of KEFLHPSKVDLPR [SOR-C13] 15

###

- TEST_NAME: Phase I plasma pharmacokinetics
- Type: in vivo, human
- CONDITION_INFO: human, plasma, iv, 4.13 mg/kg, Cohort 5: 4.13 mg/kg; N = 3; 90-min IV infusion; Cycle 1 Day 3; plasma LC-MS; read-out: Time to peak plasma concentration, Mean (SD)
Ends that are not written are not given here.
MEASURE: Tmax
A complete answer gives the number followed by the unit.

Output Tmax of KEFLHPSKVDLPR [SOR-C13] 35 min

###

- TEST_NAME: Phase I plasma pharmacokinetics
- Format: in vivo, human
- CONDITION_INFO: human, plasma, iv, 6.2 mg/kg, Cohort 6: 6.2 mg/kg; N = 6; 90-min IV infusion; Cycle 1 Day 3; plasma LC-MS; read-out: AUCtau, Median
Ends that are not written are not given here.
MEASURE: AUC(0-t)

Output AUC(0-t) of KEFLHPSKVDLPR [SOR-C13] 904 ng·h/mL

###

- TEST_NAME: Phase I plasma pharmacokinetics
- Assay type: in vivo, human
- CONDITION_INFO: human, plasma, iv, 4.13 mg/kg, Cohort 5: 4.13 mg/kg; N = 3; 90-min IV infusion; Cycle 1 Day 1; plasma LC-MS; read-out: Time to peak plasma concentration, Mean (SD)
Ends that are not written are not given here.
MEASURE: Tmax (min)
Dear colleague, please return just the value in min, with no unit written.

Output Tmax of KEFLHPSKVDLPR [SOR-C13] 25

###

- TEST_NAME: Phase I plasma pharmacokinetics
- Format: in vivo, human
- CONDITION_INFO: human, plasma, iv, 2.75 mg/kg, Cohort 4: 2.75 mg/kg; N = 6; 90-min IV infusion; Cycle 1 Day 1; plasma LC-MS; read-out: AUCtau, Mean (SD)
Ends that are not written are not given here.
MEASURE: AUC(0-t) (ng·h/mL)
Dear colleague, please return just the value in ng·h/mL, with no unit written.

Output AUC(0-t) of KEFLHPSKVDLPR [SOR-C13] 435

###

- TEST_NAME: Phase I plasma pharmacokinetics
- Assay type: in vivo, human
- CONDITION_INFO: human, plasma, iv, 6.2 mg/kg, Cohort 6: 6.2 mg/kg; N = 6; 90-min IV infusion; Cycle 1 Day 1; plasma LC-MS; read-out: Peak plasma concentration, Mean (SD)
Ends that are not written are not given here.
MEASURE: Cmax (ng/mL)
Dear colleague, please return just the value in ng/mL, with no unit written.

Output Cmax of KEFLHPSKVDLPR [SOR-C13] 1150
